Each recorded value in this set is attributed to ChEMBL document CHEMBL4619778.

TARGET_OR_SYSTEM: Neuropeptide Y receptor type 4 (Homo sapiens, UniProt P50391)
Sequence (P50391 whole entry): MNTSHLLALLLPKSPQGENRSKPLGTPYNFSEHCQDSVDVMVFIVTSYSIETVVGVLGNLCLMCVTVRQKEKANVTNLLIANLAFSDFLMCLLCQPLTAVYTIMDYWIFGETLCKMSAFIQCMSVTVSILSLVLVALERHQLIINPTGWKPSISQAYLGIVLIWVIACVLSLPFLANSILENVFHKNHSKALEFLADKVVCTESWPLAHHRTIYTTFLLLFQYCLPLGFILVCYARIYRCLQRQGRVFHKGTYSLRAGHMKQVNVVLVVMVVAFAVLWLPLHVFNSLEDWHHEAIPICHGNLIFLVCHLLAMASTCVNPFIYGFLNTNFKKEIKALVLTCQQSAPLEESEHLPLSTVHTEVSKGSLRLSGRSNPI
ASSAY_NOTES: Agonist activity at human Y4R expressed in HEK293T cells co-expressing ARRB1 assessed as induction of beta-arrestin1 recruitment measured for 40 mins by D-luciferin based luminescence assay
Assay type: cell-based, HEK-293T
PROTOCOL_CONDITIONS: read-out: EC50
ENDPOINT_LABEL: EC50 (µM)
The figure you give is taken to be in µM; do not add the unit.

Illustrative cases are given below, each with its answer.
CC(C)C[C@H](NC(=O)[C@H](CCCNC(=N)N)NC(=O)[C@H](Cc1ccc(O)cc1)NC(=O)[C@@H](N)CCCNC(N)=O)C(=O)N[C@@H](CCCNC(=N)N)C(=O)N[C@@H](Cc1ccc(O)cc1)C(N)=O
0.1
CC(=O)N[C@@H](CCCNC(=N)N)C(=O)N[C@@H](Cc1ccc(O)cc1)C(=O)N[C@@H](CCCNC(=N)N)C(=O)N[C@@H](CC(C)C)C(=O)N[C@@H](CCCNC(=N)N)C(=O)N[C@@H](Cc1ccc(O)cc1)C(N)=O
0.17

Pending compound:
Task: State EC50 (Neuropeptide Y receptor type 4 (Homo sapiens, UniProt P50391)) of CC(=O)N[C@@H](CCCNC(=N)N)C(=O)N[C@@H](Cc1c[nH]c2ccccc12)C(=O)N[C@@H](CCCNC(=N)N)C(=O)N[C@@H](CC(C)C)C(=O)N[C@@H](CCCNC(=N)N)C(=O)N[C@@H](Cc1ccc(O)cc1)C(N)=O .
Output: 0.067

====

TARGET_OR_SYSTEM: Neuropeptide Y receptor type 4 (Homo sapiens)
ASSAY_NOTES: Antagonist activity at human Y4R expressed in HEK293T cells co-expressing ARRB2 assessed as inhibition of hPP-induced beta-arrestin2 recruitment preincubated for 20 mins followed by hPP addition and measured for 40 mins by D-luciferin based luminescence assay
Type: cell-based
PROTOCOL_CONDITIONS: HEK-293T
ENDPOINT_LABEL: pKb
Could you keep your reply to the number by itself?

Illustrative cases are given below, each with its answer.
H-RYRWRY-NH2
6.87
Ac-RGYRWRW-NH2
5.8
Ac-RGYRWRY-NH2
7.01

Pending substance:
Task: Fill in pKb for record Ac-RYRWRY-NH2
Output: 6.85

====

TARGET_OR_SYSTEM: UniProt Q15761
Sequence (Q15761 whole entry): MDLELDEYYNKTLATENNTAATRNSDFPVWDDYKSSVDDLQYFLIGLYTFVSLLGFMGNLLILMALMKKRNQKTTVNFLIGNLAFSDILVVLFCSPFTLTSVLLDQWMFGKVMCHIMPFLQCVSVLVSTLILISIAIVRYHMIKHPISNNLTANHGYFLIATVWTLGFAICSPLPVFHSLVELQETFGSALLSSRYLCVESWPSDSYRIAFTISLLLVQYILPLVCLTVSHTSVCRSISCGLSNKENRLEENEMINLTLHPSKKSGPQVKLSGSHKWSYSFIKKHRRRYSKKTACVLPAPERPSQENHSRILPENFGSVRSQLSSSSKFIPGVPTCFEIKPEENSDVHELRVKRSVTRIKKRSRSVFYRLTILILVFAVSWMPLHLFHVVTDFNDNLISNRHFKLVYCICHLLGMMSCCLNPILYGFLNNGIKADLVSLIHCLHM
ASSAY_NOTES: Displacement of [3H]propionyl-pNPY from human Y5 receptor expressed in human HEC1B cells
Assay type: cell-based
PROTOCOL_CONDITIONS: read-out: pKi (converted)
The entries below come with measured Ki values attached.

Illustrative cases are given below, each with its answer.
CC(C)C[C@H](NC(=O)[C@H](CCCNC(=N)N)NC(=O)[C@H](Cc1ccc(O)cc1)NC(=O)[C@@H](N)CCCNC(N)=O)C(=O)N[C@@H](CCCNC(=N)N)C(=O)N[C@@H](Cc1ccc(O)cc1)C(N)=O
> 10 µM
CC(C)C[C@H](NC(=O)[C@@H](N)CCCNC(=N)N)C(=O)N[C@@H](CCCNC(=N)N)C(=O)N[C@@H](Cc1ccc(O)cc1)C(N)=O
> 10 µM

Pending molecule:
Task: State Ki (UniProt Q15761) of CC(C)C[C@H](NC(=O)[C@H](CCCNC(=N)N)NC(=O)[C@H](Cc1ccc(O)cc1)NC(=O)[C@@H](N)CCCNC(=N)N)C(=O)N[C@@H](CCCNC(=N)N)C(=O)N[C@@H](Cc1ccc(O)cc1)C(N)=O .
Output: > 3.16 µM
